Test Target: human glucocorticoid receptor-α [GRX] isoform (Homo sapiens, UniProt P04150)
Construct: host or cells: insect SF21 cells (baculovirus)
Sequence (P04150 whole entry, canonical isoform): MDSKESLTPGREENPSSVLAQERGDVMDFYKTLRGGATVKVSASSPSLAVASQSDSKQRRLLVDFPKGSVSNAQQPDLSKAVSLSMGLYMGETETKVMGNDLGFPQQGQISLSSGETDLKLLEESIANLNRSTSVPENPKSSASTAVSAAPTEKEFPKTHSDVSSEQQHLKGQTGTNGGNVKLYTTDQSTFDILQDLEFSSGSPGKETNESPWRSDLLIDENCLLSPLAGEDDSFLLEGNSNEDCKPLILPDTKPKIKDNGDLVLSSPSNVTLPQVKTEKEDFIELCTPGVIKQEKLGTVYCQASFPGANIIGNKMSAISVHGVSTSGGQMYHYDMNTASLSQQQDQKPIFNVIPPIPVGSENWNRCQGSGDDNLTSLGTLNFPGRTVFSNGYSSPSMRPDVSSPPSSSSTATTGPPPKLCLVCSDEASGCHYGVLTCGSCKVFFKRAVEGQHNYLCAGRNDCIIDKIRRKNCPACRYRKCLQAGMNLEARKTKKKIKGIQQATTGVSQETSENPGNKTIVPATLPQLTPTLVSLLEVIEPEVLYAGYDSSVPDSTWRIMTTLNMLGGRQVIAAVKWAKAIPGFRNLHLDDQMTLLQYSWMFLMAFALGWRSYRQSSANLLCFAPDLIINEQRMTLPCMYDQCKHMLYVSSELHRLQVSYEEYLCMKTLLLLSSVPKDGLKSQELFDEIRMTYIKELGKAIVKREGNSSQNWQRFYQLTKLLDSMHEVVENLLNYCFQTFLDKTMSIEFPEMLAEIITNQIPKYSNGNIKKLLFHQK
Experimental Details: Radioligand binding with human glucocorticoid receptor cytosol ([3H]-dexamethasone competition)
Conditions Used: GRX cytosol expressed in insect SF21 cells, [3H]-Dex ~0.9 nM, 4° C. overnight; Ki by Cheng-Prusoff, KL ~[…]; read-out: Ki (nM) GR
Ki reference
Measured Quantity: Ki (nM)

Compound	Observed Value
COc1cccc2c1-c1ccc3c(c1C(c1ccc(N(C)C)cc1)O2)C(C)=CC(C)(C)N3 (stereo not shown) [Example 39]	31
COc1cccc2c1-c1ccc3c(c1[C@@H]([C@H]1C=C(CO)CCC1)O2)C(C)=CC(C)(C)N3 (relative stereo) [Example 149]	2.7
C=CCC1Oc2c(Br)ccc(OC)c2-c2ccc3c(c21)C(C)=CC(C)(C)N3 (stereo not shown) [Example 298]	4.1
C=CCC1Oc2ccc(CO)c(OC)c2-c2ccc3c(c21)C(C)=CC(C)(C)N3 (stereo not shown) [Example 386]	6.5
